Source: paper PMC7871173

Target: CB1 receptor (Homo sapiens)
Sequence (P21554 whole entry): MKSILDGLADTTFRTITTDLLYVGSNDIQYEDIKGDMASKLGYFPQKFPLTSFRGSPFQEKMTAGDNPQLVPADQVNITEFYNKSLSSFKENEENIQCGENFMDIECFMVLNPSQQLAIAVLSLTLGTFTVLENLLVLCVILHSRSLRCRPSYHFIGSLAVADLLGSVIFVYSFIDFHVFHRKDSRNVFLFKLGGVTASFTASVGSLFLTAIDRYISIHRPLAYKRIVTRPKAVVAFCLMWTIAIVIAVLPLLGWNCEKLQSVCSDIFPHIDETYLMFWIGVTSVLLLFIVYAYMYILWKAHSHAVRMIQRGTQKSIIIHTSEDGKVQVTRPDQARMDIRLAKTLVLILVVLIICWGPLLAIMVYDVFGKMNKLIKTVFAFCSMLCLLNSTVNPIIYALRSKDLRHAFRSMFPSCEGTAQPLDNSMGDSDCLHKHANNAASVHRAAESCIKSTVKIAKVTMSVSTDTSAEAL
Type: binding
Settings: 1 μM compound
property measured: enhancement in binding of [3H]CP 55,940 (in words)

- molecule: "Cc1ccc2c(C(C[N+](=O)[O-])c3cccs3)c(-c3ccccc3)[nH]c2c1 (centres unmarked) [Compound 5, reference compound]"
  assay value: "significant enhancement"
- molecule: "N#Cc1ccc2c(C(C[N+](=O)[O-])c3cccs3)c(-c3ccccc3)[nH]c2c1 (single isomer, unassigned; (-)) [(−)-8]"
  assay value: "no enhancement"
- molecule: "N#Cc1ccc2c([C@H](CC(F)(F)F)c3cccs3)c(-c3ccccc3)[nH]c2c1 [(S)-(+)-1]"
  assay value: "significant enhancement"
- molecule: "N#Cc1ccc2c(C(C[N+](=O)[O-])c3cccs3)c(-c3ccccc3)[nH]c2c1 (single isomer, unassigned; (+)) [(+)-8]"
  assay value: "no enhancement"
- molecule: "N#Cc1ccc2c([C@@H](CC(F)(F)F)c3cccs3)c(-c3ccccc3)[nH]c2c1 [(R)-(−)-1]"
  assay value: "significant enhancement"
